Assay: Cytotoxicity against African green monkey BSC1 cells after 24 to 72 hrs by light microscopic analysis
Assay type: cell-based, BSC-1
Conditions: chlorocebus aethiops

molecule	MNTC
Cn1cc(NC=O)cc1C(=O)Nc1cc(C(=O)Nc2cc(C(=O)Nc3ccccc3C(=N)N)n(C)c2)n(C)c1	> 200 µg/mL
Cn1cc(NC=O)cc1C(=O)Nc1cc(C(=O)Nc2cc(C(=O)Nc3ccc(C(=N)N)cc3)n(C)c2)n(C)c1	> 200 µg/mL
CC(CC#N)NC(=O)c1cc(NC(=O)c2cc(NC(=O)c3cc(NC=O)cn3C)cn2C)cn1C (stereo unspecified)	> 200 µg/mL
Cn1cc(NC(=O)c2cc(NC(=O)c3cc([N+](=O)[O-])cn3C)cn2C)cc1C(=O)NCC(=N)N	50 µg/mL
Cn1cc(NC(=O)c2cc(NC(=O)c3cc(NC=O)cn3C)cn2C)cc1C(=O)NCCC#N	> 200 µg/mL
Cn1cc(NC(=O)c2cc([N+](=O)[O-])cn2C)cc1C(=O)Nc1cc(C(=O)Nc2ccccc2C(=N)N)n(C)c1	> 200 µg/mL
